FYI, the data here is from paper PMC3436892.

Assay method text: Parallax analysis of tryptophan penetration depth
Format: physicochemical
Experimental setup: ratio of tryptophan fluorescence intensity (357 nm) with shallow (6,7-dibromo-PC, F1) and deep (9,10-dibromo-PC, F2) quencher; 500 nM peptide, 200 µg/ml liposomes, PBS, 37°C, 22 h, at least triplicate
Recorded F1/F2 ± S.D. for the following sequences
The answer should be written as a number, with no unit following it.

Look over these answered cases.
Sequence record	F1/F2 ± S.D.
FHQIWAALLYFYGIILNSIY [SHP-3, non-trypanocidal small hydrophobic peptide derived from an apolipoprotein]	0.9202
FHQIGAALLYFYGIILNSIW [SHP-3∆W20, SHP-3 tryptophan variant, Trp at position 20]	1.1620
SDLGAVISLLLWGRQLFA [SHP-1, trypanocidal small hydrophobic peptide derived from an apolipoprotein, with characteristics of a secretory signal peptide]	0.9676
SDLGAVIWLLLGGRQLFA [SHP-1∆W8, SHP-1 tryptophan variant, Trp at position 8]	0.9767
SDLGAVISLLLGGRQLFW [SHP-1∆W18, SHP-1 tryptophan variant, Trp at position 18]	0.9285

For WDLGAVISLLLGGRQLFA [SHP-1∆W1, SHP-1 tryptophan variant, Trp at position 1] , what is its reported F1/F2 ± S.D.? 0.8897

For FHQIGAALLYFYWIILNSIY [SHP-3∆W13, SHP-3 tryptophan variant, Trp at position 13] , what is its reported F1/F2 ± S.D.? 0.9912
